This collection of values is drawn from patent US6888001B2.

TARGET_UNDER_TEST: α7 nAChR (Rattus norvegicus, UniProt Q05941)
Construct: crude synaptic membrane preparations from rat cerebral cortex, striatum and hippocampus; from tissue; host or cells: rat cerebral cortex, striatum and hippocampus (crude synaptic membranes, P2 fraction)
Sequence (Q05941 23-502): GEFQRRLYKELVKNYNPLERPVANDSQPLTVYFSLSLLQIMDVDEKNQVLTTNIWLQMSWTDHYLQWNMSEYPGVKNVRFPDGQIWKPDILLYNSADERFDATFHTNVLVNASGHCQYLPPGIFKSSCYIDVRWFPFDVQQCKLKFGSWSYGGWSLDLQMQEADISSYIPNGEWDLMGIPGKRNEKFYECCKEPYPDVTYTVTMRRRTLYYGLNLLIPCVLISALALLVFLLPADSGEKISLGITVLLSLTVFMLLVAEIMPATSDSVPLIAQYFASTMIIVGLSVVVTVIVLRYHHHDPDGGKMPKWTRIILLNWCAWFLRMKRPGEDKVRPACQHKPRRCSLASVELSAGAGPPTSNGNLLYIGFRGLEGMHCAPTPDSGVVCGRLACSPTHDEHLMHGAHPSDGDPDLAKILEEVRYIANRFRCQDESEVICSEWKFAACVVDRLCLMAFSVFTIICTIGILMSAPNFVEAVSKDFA
ASSAY_TEXT: Binding of 3H-MLA to α7 nAChR, crude synaptic membranes
CONDITIONS_USED: read-out: α7 (% Inh @ 10 uM)

{"COMPOUND": "Clc1ncc(O[C@@H]2CCNC2)cc1Br [Example 12]", "inhibition at 10 µM": "11%"}
{"COMPOUND": "CC(C)N1CCC(Oc2cccnc2)C1 (stereo not drawn) [Example 9]", "inhibition at 10 µM": "19%"}
{"COMPOUND": "c1cncc(OC2CCNC2)c1 (stereo not drawn) [Example 2, 3-(3-Pyrrolidinyloxy)-pyridine]", "inhibition at 10 µM": "-15%"}
{"COMPOUND": "C[Si](C)(C)C#Cc1ccc(-c2cc(O[C@@H]3CCNC3)cnc2Cl)cc1 [Example 15]", "inhibition at 10 µM": "22%"}
{"COMPOUND": "COc1cccc(-c2cc(O[C@@H]3CCNC3)cnc2Cl)c1 [Example 14]", "inhibition at 10 µM": "33%"}
{"COMPOUND": "c1cncc(OC2CNC2)c1 [Example 1, 3-(3-Azetidinyloxy)-pyridine]", "inhibition at 10 µM": "21%"}
{"COMPOUND": "c1cncc(O[C@H]2CCCNC2)c1 [Example 11, 3-(3-(S)-Piperidinyloxy)-pyridine]", "inhibition at 10 µM": "86%"}
{"COMPOUND": "c1cncc(OC2CCCNC2)c1 (stereo not drawn) [Example 10, 3-(3-Piperidinyloxy)-pyridine]", "inhibition at 10 µM": "19%"}
{"COMPOUND": "CCN1CCC(Oc2cccnc2)C1 (stereo not drawn) [Example 8, 3-(1-Ethyl-3-pyrrolidinyloxy)-pyridine]", "inhibition at 10 µM": "18%"}
{"COMPOUND": "CN1CC[C@@H](Oc2cccnc2)C1 [Example 5]", "inhibition at 10 µM": "20%"}
{"COMPOUND": "c1cncc(O[C@@H]2CCNC2)c1 [Example 4, 3-(3-(R)-Pyrrolidinyloxy)-pyridine]", "inhibition at 10 µM": "11%"}
{"COMPOUND": "N#Cc1ccc(-c2cc(O[C@@H]3CCNC3)cnc2Cl)cc1 [Example 13]", "inhibition at 10 µM": "26%"}
{"COMPOUND": "Clc1ccc(O[C@@H]2CCNC2)cn1 [Example 6]", "inhibition at 10 µM": "20%"}
{"COMPOUND": "CN1CCC(Oc2cccnc2)C1 (stereo not drawn) [Example 7, 3-(1-Methyl-3-pyrrolidinyloxy)-pyridine]", "inhibition at 10 µM": "22%"}
{"COMPOUND": "c1cncc(O[C@H]2CCNC2)c1 [Example 3, 3-(3-(S)-Pyrrolidinyloxy)-pyridine]", "inhibition at 10 µM": "5%"}
